Parameter: z-score. Scope: all listed entries.
experiment: E. coli DRC41 culture turbidity changes, primary screen, E. coli filamentation inducer project, strain DRC41, OD650, 48 h (AID 1152);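 further: E. coli MC1000 strain DRC41 lacking acrAB efflux pump and sulA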; details: E. coli DRC41 (acrAB sulA), higher = more signal, called active from +8 up or from −8 down

>  <Compound>
O=C1[C@H]2[C@H]3[C@H](O)[C@H](O)CC(=NO[C@@H]4O[C@H](CO)[C@@H](O)[C@H](O)[C@H]4O)[C@H]3CC[C@H]2C(=O)N1Cc1ccc2c(c1)OCO2

>  <z-score>
0.614

$$$$
>  <Compound>
C[C@@H](c1ccccc1)N1C(=O)[C@H]2[C@H]3[C@H](O)[C@H](O)CC(=NNC(=O)OCc4ccccc4)[C@H]3CC[C@H]2C1=O

>  <z-score>
0.645

$$$$
>  <Compound>
CC(=O)OC[C@H]1O[C@H](C#CCCCc2ccccc2)C=C[C@@H]1OC(C)=O

>  <z-score>
-0.802

$$$$
>  <Compound>
C=CC[C@]1(C(=O)NCc2ccccc2)N=C(c2ccc(OCCCO)cc2)O[C@H]1c1ccccc1

>  <z-score>
-0.0491

$$$$
>  <Compound>
C[C@H]1CC[C@@H](C(=O)O)N[C@@H]1c1ccc(C#CCN(C)C)cc1

>  <z-score>
0.883

$$$$
>  <Compound>
O=C(CS)NCCCCCNC(=O)[C@@H]1C[C@@H]2C(=O)N[C@@H](Cc3ccccc3)C(=O)N2[C@@H]1c1ccc(O)cc1

>  <z-score>
0.942

$$$$
>  <Compound>
CC(=O)OC[C@H]1O[C@@H](ON=C[C@@H](C)[C@H](OCc2ccccc2)C(C)C)[C@H](OC(C)=O)[C@@H](OC(C)=O)[C@@H]1OC(C)=O

>  <z-score>
0.319

$$$$
>  <Compound>
COc1cccc([C@H]2Oc3ccc(OC)cc3C(=NO[C@H](C)c3cn([C@@H]4COC[C@H]4O)nn3)[C@@H]2O)c1

>  <z-score>
-1.79

$$$$
>  <Compound>
C[C@H]1Cc2c(-c3ccccc3)nc3c(c2CO1)CN(CCOc1ccccc1)CC3

>  <z-score>
0.503

$$$$
>  <Compound>
CC(=O)O[C@H]1C2=C(C(=O)[C@@H]3O[C@@H]31)[C@H]1C(C)O[C@@H]2[C@@]23C(=O)[C@@H]4O[C@@H]4[C@@H](O)C2=CO[C@H](C)[C@@H]13 (stereo not given in full)

>  <z-score>
-0.0954

$$$$
>  <Compound>
CC(C)[C@H](NC(=O)OC(C)(C)C)[C@@H](O)CC(=O)OC(C)(C)C

>  <z-score>
-0.703

$$$$
>  <Compound>
O=C1[C@H]2[C@H]3[C@H](O)[C@H](O)CC(=NOC[C@@H](O)COCc4ccco4)[C@H]3CC[C@H]2C(=O)N1c1cccc(Oc2ccccc2)c1

>  <z-score>
0.66

$$$$
>  <Compound>
C[C@@H]1C=CCC(=O)OC[C@H](C)C(=O)OC[C@H]2O[C@H]1C=C[C@H]2O

>  <z-score>
0.0366

$$$$
>  <Compound>
Cn1cccc1C(O)C1C=CC2C(=O)NC(=O)C2N1Nc1ccccn1 (stereo not given)

>  <z-score>
-1.07

$$$$
>  <Compound>
N#Cc1ccc(NN2C(C(O)c3cccc4ccccc34)C=CC3C(=O)N(c4ccccc4)C(=O)C32)cc1 (stereo not given)

>  <z-score>
-0.499

$$$$
>  <Compound>
C=CCOC(=O)[C@H]1[C@@H]2C(=O)O[C@@H](c3ccccc3)[C@@H](c3ccccc3)N2[C@@H](c2ccc(OCCOC(=O)[C@H]3C[C@H]4C(=O)N5CCC[C@H]5C(=O)N4[C@H]3c3cccc(OCCO)c3)cc2)[C@]12C(=O)Nc1ccc(I)cc12

>  <z-score>
-0.709

$$$$
>  <Compound>
C[C@@H]1C=CCC(=O)OC[C@H](C)C(=O)N[C@@H](C)C(=O)OC1

>  <z-score>
0.811

$$$$
>  <Compound>
CCc1cccc(NC(=O)O[C@H]2[C@H](OC(=O)Nc3ccc4c(c3)OCO4)[C@@H](OC(=O)Nc3ccc4c(c3)OCO4)[C@@H](OC)O[C@@H]2CO)c1

>  <z-score>
0.861

$$$$
>  <Compound>
C#CCCCON=C1C[C@@H](O)[C@@H](O)[C@@H]2[C@@H]3C(=O)N(c4cccc(Oc5ccccc5)c4)C(=O)[C@@H]3CC[C@@H]12

>  <z-score>
-0.164

$$$$
>  <Compound>
O=C1[C@H]2[C@H]3[C@H](O)[C@H](O)CC(=NOCc4ccccc4)[C@H]3CC[C@H]2C(=O)N1c1ccc(F)cc1F

>  <z-score>
-0.139

$$$$
>  <Compound>
CO[C@@H]1COC(=O)CC=C[C@@H](C)[C@@H]2C=C[C@H](O)[C@@H](COC(=O)CCC[C@H]1C)O2

>  <z-score>
-0.457

$$$$
>  <Compound>
CC(C)CON=C1C[C@@H](O)[C@@H](O)[C@@H]2[C@@H]3C(=O)N(C[C@@H]4CCCO4)C(=O)[C@@H]3CC[C@H]12

>  <z-score>
0.165

$$$$
>  <Compound>
CCOC(=O)CCN1C(=O)[C@H]2[C@H]3[C@H](O)[C@H](O)CC(=NNC(=O)OCc4ccc(OC)cc4)[C@@H]3CC[C@H]2C1=O

>  <z-score>
0.0393

$$$$
>  <Compound>
CN1C(=O)C2C=CC(C(O)c3ccc(I)cc3)N(NC(=O)OC(C)(C)C)C2C1=O (stereo not given)

>  <z-score>
-1.55

$$$$
>  <Compound>
O=C1[C@H]2[C@H]3[C@H](O)[C@H](O)CC(=NO[C@@H]4O[C@H](CO)[C@@H](O)[C@H](O)[C@H]4O)[C@@H]3CC[C@H]2C(=O)N1Cc1ccc2c(c1)OCO2

>  <z-score>
-0.161

$$$$
>  <Compound>
CCOC(=O)[C@H](Cc1ccccc1)NC(=O)CCC1CC(OC(=O)NCc2ccc3c(c2)OCO3)CC2(CCCC(COC(=O)NCc3ccccc3)O2)O1 (stereo not given in full)

>  <z-score>
0.0722

$$$$
>  <Compound>
CC(C)(C)N1C(=O)[C@H]2[C@H]3[C@H](O)[C@H](O)CC(=NOCc4ccccc4)[C@@H]3CC[C@H]2C1=O

>  <z-score>
0.831

$$$$
>  <Compound>
CC(C)NC(=O)[C@@H]1c2ccccc2C(=O)N(CC23CC4CC(CC(C4)C2)C3)[C@H]1c1ccc(CO)cc1

>  <z-score>
1.47

$$$$
>  <Compound>
Cc1cc2c(nc1C)CCCN2CC(O)CN1CCN(C)CC1 (stereo not given)

>  <z-score>
-0.243

$$$$
>  <Compound>
O=C1CCCC2OC12C(O)CCc1ccccc1 (stereo not given)

>  <z-score>
0.508

$$$$
